system: SW872; test: relative viability vs DMSO control (72 h) (fraction); higher = more viable cells; conditions: 3.333 µM
parameter.measured: relative viability

Tell me the measured relative viability of CO[C@@H]1[C@H](N(C)C(=O)c2ccccc2)C[C@H]2O[C@]1(C)n1c3ccccc3c3c4c(c5c6ccccc6n2c5c31)C(=O)NC4 , please. 0.253

Given C=CC(=O)Nc1cc(Nc2nccc(-c3cn(C)c4ccccc34)n2)c(OC)cc1N(C)CCN(C)C , state its recorded relative viability. 0.761

What does the data say about its relative viability? Entry: Cc1ccc(NC(=O)c2ccc(CN3CCN(C)CC3)cc2)cc1Nc1nccc(-c2cccnc2)n1 0.916

Fill in the blank: the reported relative viability of N#CCC1(n2cc(-c3ncnc4[nH]ccc34)cn2)CN(C2CCN(C(=O)c3ccnc(C(F)(F)F)c3F)CC2)C1 is ____. 0.902

Consider the molecule shown here: COc1cc(Nc2c(C#N)cnc3cc(OCCCN4CCN(C)CC4)c(OC)cc23)c(Cl)cc1Cl What is its recorded relative viability? 0.555

// returns reported relative viability for input Cc1ccc(C(=O)OCc2ccc([C@@H](CN)C(=O)Nc3ccc4cnccc4c3)cc2)c(C)c1 0.637

Sample N#Cc1ccnc(N2C(=O)CC[C@H]2C(=O)N(c2cncc(F)c2)[C@H](C(=O)NC2CC(F)(F)C2)c2ccccc2Cl)c1 — what was its relative viability? 1.05

Need relative viability, item C[C@@H](Oc1cc(-c2cnn(C3CCNCC3)c2)cnc1N)c1c(Cl)ccc(F)c1Cl 0.463

I'd like to know its relative viability. The molecule in question is CN(C)C[C@@H]1CCn2cc(c3ccccc32)C2=C(C(=O)NC2=O)c2cn(c3ccccc23)CCO1 0.846

---

test system: HS729; assay: relative viability vs DMSO control (72 h) (fraction); higher = more viable cells; conditions: 10 µM
Label 1.0 when relative viability < 0.3; otherwise 0.0.

Does the reported relative viability of the following compound sit strictly below 0.3? COc1cc2nccc(Oc3ccc(NC(=O)C4(C(=O)Nc5ccc(F)cc5)CC4)cc3)c2cc1OC [Cabozantinib] 1.0

Identify whether the compound CN1CCN(CCOc2cc(OC3CCOCC3)c3c(Nc4c(Cl)ccc5c4OCO5)ncnc3c2)CC1 records relative viability below 0.3. 0.0

Please determine if CO[C@@H]1[C@H](N(C)C(=O)c2ccccc2)C[C@H]2O[C@]1(C)n1c3ccccc3c3c4c(c5c6ccccc6n2c5c31)C(=O)NC4 is below 0.3 in terms of relative viability. 1.0

Could you please tell me whether relative viability recorded for COc1cc2ncnc(Nc3ccc(F)c(Cl)c3)c2cc1NC(=O)/C=C/CN1CCCCC1 is less than 0.3? 0.0

Is relative viability strictly under 0.3 for the entry CO[C@H]1C[C@@H]2CC[C@@H](C)[C@@](O)(O2)C(=O)C(=O)N2CCCC[C@H]2C(=O)O[C@H]([C@H](C)C[C@@H]2CC[C@@H](O)[C@H](OC)C2)CC(=O)[C@H](C)/C=C(\C)[C@@H](O)[C@@H](OC)C(=O)[C@H](C)C[C@H](C)/C=C/C=C/C=C/1C ? 0.0

is_below(relative viability, 0.3) for Cc1cccc(-c2[nH]c(CNc3ccccc3F)nc2-c2ccc3ncnn3c2)n1 ? 0.0

Answer whether the compound N#CCC1(n2cc(-c3ncnc4[nH]ccc34)cn2)CN(C2CCN(C(=O)c3ccnc(C(F)(F)F)c3F)CC2)C1 has relative viability strictly less than 0.3 0.0

---

Give relative viability for every item shown.
tested on: HT1080; assay: relative viability vs DMSO control (72 h) (fraction); higher = more viable cells; settings: 10 µM
When you answer, write just the number.

Requested field: relative viability. Item: CC[C@@H]1C(=O)N(C)c2cnc(Nc3ccc(C(=O)N[C@H]4CC[C@H](N5CCN(CC6CC6)CC5)CC4)cc3OC)nc2N1C(C)C [Volasertib] 0.00783

Entry under review: NC(=O)c1cccc2cn(-c3ccc([C@@H]4CCCNC4)cc3)nc12 [Niraparib] . Reported relative viability? 1.03

Reported relative viability, molecule CNC(=O)c1cc(Oc2ccc(NC(=O)Nc3ccc(Cl)c(C(F)(F)F)c3)cc2)ccn1 [Sorafenib] : ____ 0.0932

Recorded relative viability of COc1cc2nccc(Oc3ccc(NC(=O)NC4CC4)c(Cl)c3)c2cc1C(N)=O [Lenvatinib] , please. 1.12

---

tested on: KHOS-NP; experiment: relative viability vs DMSO control (72 h) (fraction); higher = more viable cells; details: 3.333 µM
parameter.measured: relative viability
# print the numeric value only

Item CN1CCN(CCOc2cc(OC3CCOCC3)c3c(Nc4c(Cl)ccc5c4OCO5)ncnc3c2)CC1 with KHOS-NP - relative viability? 0.862

Provide value of relative viability for this record tested with KHOS-NP: COc1cc(OC)cc(N(CCNC(C)C)c2ccc3ncc(-c4cnn(C)c4)nc3c2)c1 0.943

Short answer please: relative viability, KHOS-NP, entry CCN(CCCOc1ccc2c(Nc3cc(CC(=O)Nc4cccc(F)c4)[nH]n3)ncnc2c1)CCOP(=O)(O)O 1.12

Write down the reported relative viability of COc1cc2nccc(Oc3ccc(NC(=O)NC4CC4)c(Cl)c3)c2cc1C(N)=O , test system: KHOS-NP. 1.09

---

tested on: SW982; assay: relative viability vs DMSO control (72 h) (fraction); higher = more viable cells; details: 0.04115 µM
Assignment: determine reported relative viability for the given compounds.
Just the number, please, no unit attached.

What measured relative viability goes with CNC(=O)c1cc(Oc2ccc(NC(=O)Nc3ccc(Cl)c(C(F)(F)F)c3)cc2)ccn1 [Sorafenib] ? 1.07

Fill blank: measured relative viability of the compound COc1cc(Nc2c(C#N)cnc3cc(OCCCN4CCN(C)CC4)c(OC)cc23)c(Cl)cc1Cl [Bosutinib] is ____. 1.08

So what does the record say about relative viability for N#CCC1(n2cc(-c3ncnc4[nH]ccc34)cn2)CN(C2CCN(C(=O)c3ccnc(C(F)(F)F)c3F)CC2)C1 [Itacitinib] ? 0.974

Given the entry C#Cc1cccc(Nc2ncnc3cc(OCCOC)c(OCCOC)cc23)c1 [Erlotinib] , report its measured relative viability. 1.08

Entry CN1CCN(CCOc2cc(OC3CCOCC3)c3c(Nc4c(Cl)ccc5c4OCO5)ncnc3c2)CC1 [Saracatinib] has what relative viability? 1.08

May I ask what relative viability has been recorded for N#Cc1ccnc(N2C(=O)CC[C@H]2C(=O)N(c2cncc(F)c2)[C@H](C(=O)NC2CC(F)(F)C2)c2ccccc2Cl)c1 [Ivosidenib] ? 1.01

Requested read-out: relative viability. Entry: Cc1cc(Nc2ncc(Cl)c(Nc3ccccc3S(=O)(=O)C(C)C)n2)c(OC(C)C)cc1C1CCNCC1 [Ceritinib] 0.967

Request the reported relative viability associated with C=CC(=O)Nc1cccc(Nc2nc(Nc3ccc(N4CCN(C(C)=O)CC4)cc3OC)ncc2C(F)(F)F)c1 [Rociletinib] 1.04

Entry Cc1c(F)cc(C(=O)NC2CC2)cc1-c1ccc(C(=O)NCC(C)(C)C)cn1 [Losmapimod] : reported relative viability = ? 1.07

Find the recorded relative viability belonging to COc1cc2nccc(Oc3ccc(NC(=O)C4(C(=O)Nc5ccc(F)cc5)CC4)cc3)c2cc1OC [Cabozantinib] and report it. 1.07

Please give the measured relative viability for this compound: COc1cc(OC)cc(N(CCNC(C)C)c2ccc3ncc(-c4cnn(C)c4)nc3c2)c1 [Erdafitinib] 0.958

Please look up its relative viability: CC[C@@H]1C(=O)N(C)c2cnc(Nc3ccc(C(=O)N[C@H]4CC[C@H](N5CCN(CC6CC6)CC5)CC4)cc3OC)nc2N1C(C)C [Volasertib] 0.353

---

system: SW1353; test: relative viability vs DMSO control (72 h) (fraction); higher = more viable cells; settings: 0.00051 µM
Give relative viability for every item shown.
API note: the answer field is a bare number with no unit suffix.

So what's the measured relative viability for this one? C[C@H]1Oc2cc(cnc2N)-c2c(nn(C)c2C#N)CN(C)C(=O)c2ccc(F)cc21 [Lorlatinib] 1.06

Suppose we examine the compound C=CC(=O)Nc1cc(Nc2nccc(-c3cn(C)c4ccccc34)n2)c(OC)cc1N(C)CCN(C)C [Osimertinib] ; what relative viability value has been reported? 1.01

GET /values?readout=relative viability&item= NC(=O)c1cccc2cn(-c3ccc([C@@H]4CCCNC4)cc3)nc12 [Niraparib] 0.981

I have this compound here, C[C@@H](Oc1cc(-c2cnn(C3CCNCC3)c2)cnc1N)c1c(Cl)ccc(F)c1Cl [Crizotinib] , and I need its recorded relative viability. 1

Given the entry CO[C@H]1C[C@@H]2CC[C@@H](C)[C@@](O)(O2)C(=O)C(=O)N2CCCC[C@H]2C(=O)O[C@H]([C@H](C)C[C@@H]2CC[C@@H](O)[C@H](OC)C2)CC(=O)[C@H](C)/C=C(\C)[C@@H](O)[C@@H](OC)C(=O)[C@H](C)C[C@H](C)/C=C/C=C/C=C/1C [Rapamycin] , report its measured relative viability. 0.851

Which value of relative viability has been reported for NC(=O)c1cnc2[nH]ccc2c1N[C@@H]1[C@@H]2CC3C[C@H]1C[C@@](O)(C3)C2 [Peficitinib] in the records? 1.05

Report relative viability for CO[C@@H]1[C@H](N(C)C(=O)c2ccccc2)C[C@H]2O[C@]1(C)n1c3ccccc3c3c4c(c5c6ccccc6n2c5c31)C(=O)NC4 [Midostaurin] please. 0.927
